Reported CC50 at 24 h values are given for each entry in this list.
Experiment: Cytotoxicity, resazurin staining assay
Assay type: cell-based, human
Conditions: human, A549 cells; 24 h incubation
reported property: CC50 at 24 h

compound	reported property	value observed
CCCCCCCCCCc1ccc(CCC(N)(CO)CO)nc1	CC50 at 24 h	27.6 µM
CCCCCCCCc1ccc2cc(CC(N)(CO)CO)ccc2c1	CC50 at 24 h	> 40 µM
CCCCCCCCCCc1ccc(C(O)CC(N)(CO)CO)cc1 (stereo not drawn)	CC50 at 24 h	35.3 µM
CCCCCCCCc1ccc(CCC(N)(CO)CO)cc1	CC50 at 24 h	> 40 µM
CCCCCCCCc1ccc2ccc(CC(N)(CO)CO)nc2c1	CC50 at 24 h	27.5 µM
CCCCCCCCc1cccc(CCC(N)(CO)CO)c1	CC50 at 24 h	> 40 µM

----------
Test system: A. baumannii NCTC 13423
Experiment: Antibacterial activity, pre-exposure
Type: cell-based, Acinetobacter baumannii
Conditions: Acinetobacter baumannii, NCTC13423; A. baumannii NCTC 13423, pre-exposure, 15 µM, ± SD; read-out: Average inhibition %, biofilms biomass

molecule	inhibition at 15 µM, %
CCCCCCCCCCc1ccc2nc(CC(N)(CO)CO)ccc2c1 [Compound 83]	0
CCCCCCCCCCc1ccc(CCC(N)(CO)CO)cc1 [Compound 11]	0
CCCCCCCCOc1ccc(CCC(N)(CO)CO)cc1 [Compound 48]	0
CCCCCCCCCCOc1ccc(CCC(N)(CO)CO)cc1 [Compound 49]	1.5
CCCCCCCCc1ccc(CC(N)(CO)CO)cc1 [Compound 44]	5.6
CCCCCc1ccc(-c2ccc(CCC(N)(CO)CO)cc2)cc1 [Compound 15]	0.8
CCCCCCCCc1cccc(CCC(N)(CO)CO)c1 [Compound 43]	76.9
CCCCCCCCCCc1ccc2nc(CCC(N)(CO)CO)ccc2c1 [Compound 81]	2.1
CCCCCCCCCCc1ccc(CCC(N)(CO)CO)nc1 [Compound 62]	85.4
CCCCCC/C=C/c1ccc(CCC(N)(CO)CO)cc1 [Compound 42]	6.2
CCCCCCCCc1ccc2nc(CCC(N)(CO)CO)ccc2c1 [Compound 80]	53
CCCCCCCCc1ccc2ccc(CC(N)(CO)CO)nc2c1 [Compound 82]	74.7
CCCCCCCCc1ccc2cc(CC(N)(CO)CO)ccc2c1 [Compound 79]	3.3
CCCCCCCCc1ccc(C(O)CC(N)(CO)CO)cc1 (stereo not shown) [Compound 54]	1.5
CCCCCCCCCCc1ccc(C(O)CC(N)(CO)CO)cc1 (stereo not shown) [Compound 55]	74.2
CCCCCCCCc1ccc(CCC(N)(CO)CO)cc1 [fingolimod, Fingolimod]	44.1

----------
In this section we review reported inhibition at 25 µM values for a set of compounds.
Test system: S. aureus ATCC 25923
Assay: Antibacterial activity, pre-exposure (planktonic cells and biofilm formation)
Type: cell-based, Staphylococcus aureus
Details: Staphylococcus aureus, ATCC25923; pre-exposure, 25 µM, ± SD; read-out: Average inhibition %, planktonic cells turbidity

compound	units of measure	inhibition at 25 µM
CCCCCCCCc1ccc(CCC(N)(CO)CO)cc1	%	99.8
CCCCCCCCc1ccc2nc(CCC(N)(CO)CO)ccc2c1	%	99.1
CCCCCc1ccc(-c2ccc(CCC(N)(CO)CO)cc2)cc1	%	76.5
CCCCCCCCCCc1ccc(CCC(N)(CO)CO)cc1	%	97.9
CCCCCCCCOc1ccc(CCC(N)(CO)CO)cc1	%	97.4
CCCCCCCCc1cccc(CCC(N)(CO)CO)c1	%	98.9
CCCCCCCCc1ccc2ccc(CC(N)(CO)CO)nc2c1	%	99.9
CCCCCCCCCCc1ccc2nc(CC(N)(CO)CO)ccc2c1	%	99
CCCCCCCCc1ccc(C(O)CC(N)(CO)CO)cc1 (stereo not shown)	%	98.8
CCCCCCCCc1ccc2cc(CC(N)(CO)CO)ccc2c1	%	98.5

This collection of values is drawn from paper PMC8296573.
